Molecular target: SARS-CoV-2 spike receptor binding domain (RBD) (SARS-CoV-2, UniProt P0DTC2 319-541)
Assay: flow
# pKd annotations
For clarity, pKd is expressed as the negative log10 of concentration in mol/L.

Here are 4 binders together with their reported answers.
binder | observedMeasurement
FM 7B (antibody, V domains shown) VH: EVQLVQSGAEVKKPGASVKVSCKASGYTFTSYAMHWVRQAPGQRLEWMGWINTGNGNTKYSQKFQGRVTITRDTSASTAYMELSSLRSEDTAVYYCARDPTYCSSTSCYPFSWFDPWGQGTLVTVSS VL: NFMLTQPPSVSVAPGQTARITCGGNNIGSKSVHWYQQKPGQAPVLVVYDDSDRPSGIPERFSGSNSGNTATLTISRVEAGDEADYYCQVWDSTGDHSWVFGGGTKLTVL | 9.19
FD 11A (antibody, V domains shown) VH: EVQLVESGGGVVQPGRSLRLSCAASGFTFSSYGMHWVRQAPGKGLEWVAVIWYDGSNKYYADSVKGRFTISRDNSKNTLYLQMNSLRAEDTAVYYCAKGPDILTGYYNYYYYGMDVWGQGTMVTVSS VL: QSVLTQPPSVSGAPGQRVTISCTGSSSNIGAGYDVHWYQQLPGTAPKLLIYGNSNRPSGVPDRFSGSKSGTSASLAITGLQAEDEADYYCQSYDSSLSGFYVVFGGGTKLTVL | 9.12
FI 4A (antibody, V domains shown) VH: EVQLVESGGGLVKPGGSLRLSCAASGFTFSRFSMNWVRQAPGKGLEWVSSISSSGSYIYFADSVKGRFTISRDNAKNSLYLQMNSLRAEDTAIYYCATYLFGDSHTYWGQGTLVTVSS VL: QSVLTQPHSVSESPGKTVTISCTGSSGSIASNYVQWYQQRPGSAPTTVIYEDNQRPSGVPDRFSGSIDSSSNSASLTISGLKTEDEADYYCQSYDSSNLHWVFGGGTKLTVL | 8.10
FN 12A (antibody, V domains shown) VH: QVQLVQSGAEVKKPGSSVKVSCKASGGTFSSYAISWVRQAPGQGLEWMGRIIPILGIANYAQKFQGRVTITADKSTSTAYMELSSLRSEDTAVYYCARSGCSSTSCPSNLYYYYYGMDVWGQGTTVTVSS VL: QSVLTQPPSVSAAPGQKVTISCSGSSSNIGNNYVSWYQQLPGTAPKLLIYDNNKRPSGIPDRFSGSKSGTSATLGITGLQTGDEADYYCGTWDSSLSALVFGGGTKLTVL | 8.95

Here is another binder to look at.
(Q) Name the recorded pKd of the binder listed here: FI 1C (antibody, V domains shown) VH: EVQLVESGGGLVKPGGSLRLSCAASGFTFSDYYMSWIRQAPGKGLEWVSYISSSGSTIYYADSVKGRFTISRDNAKNSLYLQMNSLRAEDTAVYYCARRSNRFLIAFDIWGQGTMVTVSS VL: QSALTQPASVSGSPGQTITISCTGTSSDVGGYNYVSWYQQHPGKAPKLMIYEVSNRPSGVSNRFSGSKSGNTASLTISGLQAEDEADYYCSSYTSSSTLVVFGGGTKLTVP
(A) 7.91
